// reported Ki for each item listed
- tested_target: UniProtKB P00734
- procedure_summary: Enzymatic assay for thrombin (Boc-VPR-AMC substrate)
- Assay type: biochemical
- cond: Thrombin Ki (μM)
Counter-ions that a name gives are not always drawn.

Below, 5 compounds whose answers are already recorded.
| compound | parameter_measured | recorded_measurement |
| --- | --- | --- |
| Cc1nc(N)ccc1CNC(=O)[C@H](C)NC(=O)[C@H]1C[C@H](Cc2ccc(Br)c(Cl)c2)CN1 [compound 1466, Di-trifluoroacetate salt] | Ki | 10 to 25 µM |
| Cc1cccc([C@H]2CN[C@@H](C(=O)N[C@@H](C)C(=O)NCc3ccc(C(=N)N)cc3)C2)c1 [compound 1247] | Ki | 0.5 to 2.5 µM |
| COc1cc2ccccc2cc1C[C@@H]1CN[C@@H](C(=O)N[C@@H](C)C(=O)NCc2ccc(N)nc2C)C1 [compound 1478, Dihydrochloride] | Ki | 10 to 25 µM |
| C[C@H](NC(=O)[C@H](N)CCc1ccccc1)C(=O)NCc1cc(Cl)ccc1[N+](=O)[O-] [compound 1246] | Ki | 10 to 25 µM |
| C[C@H](NC(=O)[C@H]1C[C@@H](c2cccc(C(F)(F)F)c2)CN1)C(=O)NCc1ccc(C(=N)N)cc1 [compound 1276] | Ki | 0.5 to 2.5 µM |

Task: For UniProtKB P00734, provide Ki of Cc1nc(N)ccc1CNC(=O)[C@H](C)NC(=O)[C@H]1C[C@H](Cc2ccc(Cl)c(Br)c2)CN1 [compound 1451, Di-trifluoroacetate salt] please.
Output: 10 to 25 µM
